Catalogue of activity change, negative = lower viability readings, one per entry.
# METHOD NOTES: qHTS for Inhibitors of the Functional Ribonucleoprotein Complex (vRNP) of Lymphocytic Choriomeningitis Arenaviruses (LCMV): Viability assay - alamar blue signal for LCMV Primary Screen (AID 1347085); also: % is scaled to controls: 0 for no effect and ±100 for the full control effect; nearly all actives have a fitted effect of over 80% in size
# RUN CONDITIONS: alamar blue viability counter-screen, LCMV vRNP screen cells; series mostly up to 57.5 µM
Inconclusive results are not listed. Active and inactive are the calls of the source. Calls follow the shape of the full dose curve; tested in HEK293 reporter line.

COMPOUND	EXPERIMENTAL VALUE
COC1[C@@H](OC)C[C@H](C)[C@@H](OC)C2=CC(=O)C=C(NC(=O)/C(C)=C/C=C\[C@H](OC)[C@@H](OC(N)=O)/C(C)=C/[C@@H]1C)C2=O (some centres undefined)	15.6% [at 5.82 µM] (inactive)

## Input Identify measured activity change, negative = lower viability corresponding to `O=C(O)CCC[C@H](O)\C=C/C=C/C=C/[C@H](O)C/C=C\CCCCCO`
## Output -25.2% [at 0.757 µM] (inactive)

## Input Kindly indicate its recorded activity change, negative = lower viability. Item: `NC(=O)[C@H]1CCCN1C(=O)[C@H](Cc1cnc[nH]1)NC(=O)[C@@H]1CCC(=O)N1`
## Output -0.247% [at 5.82 µM] (inactive)

## Input Quick one: give measured activity change, negative = lower viability for `CCCCC/C=C\C/C=C\C[C@H](O)/C=C/C=C\CCCC(=O)O`
## Output 7.12% [at 0.757 µM] (inactive)
